Attribution: PubChem BioAssay AID1159580

Test: chemical genetic growth profiling, strain panel (AID 1159580);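 note: tested at 20 µM; growth read once vehicle control cultures reached saturation at 30 °C; lower values mean less growth of the strain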
Conditions: S. cerevisiae deletion strains, growth OD, locus YKL068W
In all, about 5,500 compounds went through this assay and about 2,000 (36%) were called active. Inconclusive results (about 18%) are left out. Cut-off read from the data, not from the text of the source: active = normalized growth mostly below about 0.91 (no sharp cut-off); inconclusive = no clear call, values can overlap the other calls; inactive = mostly above about 0.92. Some of the results follow.
Possible outcomes: active, inactive

1. COc1cc(NC(C)CCCN)c2ncccc2c1 (stereo unspecified)
inactive
2. COc1ccc2cc([C@H](C)CO)ccc2c1
inactive
3. COc1cc2c(cc1OC)[C@@H]1C(=O)c3ccc4oc(C(C)C)cc4c3O[C@@H]1CO2
inactive
4. COC1=C(OC)C(=O)C(C/C=C(\C)CC/C=C(\C)CC/C=C(\C)CC/C=C(/C)CC/C=C(\C)CC/C=C(\C)CC/C=C(\C)CC/C=C(\C)CC/C=C(\C)CCC=C(C)C)=C(C)C1=O
inactive
5. COc1ccc2cc([C@H](C)C(=O)O)ccc2c1
inactive
6. COc1cc2c(cc1OC)C1C(=O)c3ccc4c(c3OC1CO2)CCC(C)(C)O4 (stereo unspecified)
inactive
7. CC(C(=O)O)c1cccc(C(=O)c2ccccc2)c1 (stereo unspecified)
inactive
8. CCCCCCCCNC(C)C(O)c1ccc(SC(C)C)cc1 (stereo unspecified)
inactive
9. CC1(C)C(C=C(Cl)Cl)C1C(=O)OC(C#N)c1cccc(Oc2ccccc2)c1 (stereo unspecified)
inactive
10. CC(C(=O)O)c1ccc(-c2ccccc2)c(F)c1 (stereo unspecified)
active
11. COc1cc2c(cc1OC)[C@@H]1C(=O)c3ccc(O)c(CC=C(C)C)c3O[C@@H]1CO2
inactive
12. CC(C(=O)O)c1cccc(Oc2ccccc2)c1 (stereo unspecified)
active
13. CCC(C)C(=O)O[C@H]1[C@H](O)C2C(CN3CC(C)CCC3[C@@]2(C)O)C2C[C@]34O[C@]5(O)C(OC(=O)C(C)(O)C(C)O)CC[C@@]3(C)C5C(OC(C)=O)[C@@H](OC(C)=O)C4[C@@]21O (stereo partly specified)
inactive
14. CC(CCc1ccccc1)NC(C)C(O)c1ccc(O)cc1 (stereo unspecified)
inactive
15. COc1cc2c(cc1OC)C1C(=O)c3c(cc4c(c3O)C=CC(C)(C)O4)OC1CO2 (stereo unspecified)
inactive
16. CCCCNc1cc(C(=O)O)cc(S(N)(=O)=O)c1Oc1ccccc1
inactive
17. COc1ccc2c(c1)O[C@@H]1COc3cc(OC)c(OC)cc3[C@@H]1C2=O
inactive
18. O=C1C=CC(=C(c2ccc(O)cc2)c2ccc(O)cc2)C=C1
inactive
19. CCOC(=O)CCC(=O)O[C@H]1[C@H](O[C@@H]2[C@@H](C)[C@H](O[C@H]3C[C@@](C)(OC)[C@@H](O)[C@H](C)O3)[C@@H](C)C(=O)O[C@H](CC)[C@@](C)(O)[C@H](O)[C@@H](C)C(=O)[C@H](C)C[C@@]2(C)O)O[C@H](C)C[C@@H]1N(C)C
inactive
20. CC(=O)N[C@@H](CC(C)C)C(=O)O
inactive
21. CC(C)(OC(=O)c1ccccc1)[C@@H]1Cc2cc3ccc(=O)oc3cc2O1
inactive
